# system-tested: Human adenosine A2b receptor (Homo sapiens)
# Sequence (P29275 1-332): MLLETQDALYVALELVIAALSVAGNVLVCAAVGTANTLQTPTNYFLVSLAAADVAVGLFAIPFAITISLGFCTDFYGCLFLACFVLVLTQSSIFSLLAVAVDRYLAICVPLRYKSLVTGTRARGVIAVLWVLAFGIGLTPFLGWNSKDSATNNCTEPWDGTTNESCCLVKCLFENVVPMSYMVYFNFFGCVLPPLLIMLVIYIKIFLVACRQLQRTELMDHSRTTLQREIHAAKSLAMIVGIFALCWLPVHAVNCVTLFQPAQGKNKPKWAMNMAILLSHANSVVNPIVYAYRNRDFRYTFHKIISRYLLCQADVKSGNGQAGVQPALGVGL
# assay: Suppression of NECA-stimulated cAMP production in adenosine A2b receptor expressed CHOK1 cells
# condition-summary: NECA 30 nM
Counter-ions that a name gives are not always drawn.
observable: pIC50
Answer as the number alone; pIC50 is minus log10 of concentration in mol/L.

CCn1c(-c2cccc(F)c2)nc2c(N)nc(C#CC3(O)CCC3)nc21 [Compound A]    7.55

Lab note: molecule Cn1c(-c2cccc(F)c2)nc2c(N)nc(C#CC3(O)CCCC3)nc21 [Compound B] tested on Human adenosine A2b receptor (Homo sapiens); recorded pIC50 was 7.15

Human adenosine A2b receptor (Homo sapiens) assay, molecule CCCn1c(=O)c2c(nc(/C=C/c3ccc(OC)c(OC)c3)n2C)n(CCC)c1=O [KF17837] , recorded pIC50 = 5.87

Given the molecule Fc1cccc(-c2nc3cccnc3n2-c2ccncc2)c1 [Compound C, Hydrochloride, reference compound] and test system Human adenosine A2b receptor (Homo sapiens), the measured pIC50 is 7.00
